Would you mind telling me the reported GI50 of each entry?
System: OVCAR-5
Experiment: NCI tumour cell line growth inhibition, 48 h
Calls of active or inactive are those of the source. Cut-off read from the data, not from the text of the source: active = GI50 up to about 1.1 µM and inactive = higher.

Find the recorded GI50 belonging to CCOC(=O)c1c(C)c2c(n1C)CCc1c[nH]nc1-2 and report it.
99.1 µM (inactive)

Find the recorded GI50 belonging to Clc1ccc(C2=CC(c3ccccc3)N3C(=N[C@H]4CCCC[C@@H]43)N2)cc1 (stereo partly specified) and report it.
11.5 µM (inactive)

Find the recorded GI50 belonging to O=[N+]([O-])c1c(/C=N/Nc2ccccc2)oc(-c2ccc3c(c2)OCO3)c1-c1ccc2c(c1)OCO2 and report it.
5.79 µM (inactive)

Find the recorded GI50 belonging to Cn1cc(C2NC(=O)c3ccccc3N2)c2ccccc21 (stereo unspecified) and report it.
1.18 µM (inactive)

Find the recorded GI50 belonging to COc1ccc(/C=N/N=C(\N)NO)c(O)c1 and report it.
> 10 µM (inactive)

Find the recorded GI50 belonging to CC(C#N)(NO)C(C)(C#N)NO (stereo unspecified) and report it.
> 100 µM (inactive)

Find the recorded GI50 belonging to CC(C)/C(Cl)=N/OC(=O)Nc1ccc(Br)cc1 and report it.
14.6 µM (inactive)

Find the recorded GI50 belonging to c1ccc(C2=NN3CN(N2)c2ccccc2OCCCOc2ccccc23)cc1 and report it.
> 100 µM (inactive)

Find the recorded GI50 belonging to CC(C)(CO)CNc1cc(=O)[nH]c(N)n1 and report it.
> 100 µM (inactive)

Find the recorded GI50 belonging to O=CNc1ccc(S(=O)(=O)c2ccc(NC=O)cc2)cc1 and report it.
> 100 µM (inactive)

Find the recorded GI50 belonging to COc1cc2c(cc1OC)C(C(c1ccccc1)c1ccccc1)N(C)CC2 (stereo unspecified) and report it.
> 100 µM (inactive)

---

Tested on: SW-620
Assay: NCI tumour cell line growth inhibition, 48 h
Active and inactive are the calls of the source. Rule as the data show it: active = GI50 up to about 1.1 µM and inactive = higher.
Would you mind telling me the reported GI50 of each entry?

Find the recorded GI50 belonging to O=c1[nH]nc(Cc2ccc(Cl)cc2)n1O and report it.
> 100 µM (inactive)

Find the recorded GI50 belonging to COC(=O)CCCCC/C(=C\C(=O)C(Cl)(Cl)Cl)OC and report it.
31.7 µM (inactive)

Find the recorded GI50 belonging to CCC(=C(C#N)C#N)c1cc(OC)c(OC)c(OC)c1 and report it.
> 100 µM (inactive)

Find the recorded GI50 belonging to COc1ccc(C=O)cc1OS(=O)(=O)C(F)(F)C(F)(F)C(F)(F)C(F)(F)F and report it.
24.9 µM (inactive)

Find the recorded GI50 belonging to CC(C#N)(NO)C(C)(C#N)NO (stereo not given) and report it.
> 100 µM (inactive)

Find the recorded GI50 belonging to C[C@]12CC[C@H](O)C[C@@H]1CC[C@@H]1[C@@H]2CC[C@]2(C)[C@@H](C3=CC(=O)OC3)CC[C@]12O and report it.
3.51 µM (inactive)

Find the recorded GI50 belonging to O=[N+]([O-])c1cccc(C2N3CCCCC3[C@@H]3c4[nH]c5ccccc5c4CCN23)c1 (stereo not given in full) and report it.
20 µM (inactive)

Find the recorded GI50 belonging to N#Cc1c(N)n(-c2nc3ccccc3s2)c(=O)c2cc([N+](=O)[O-])ccc12 and report it.
26.2 µM (inactive)

Find the recorded GI50 belonging to N#CC1C(C#N)C2(c3ccccc3)C(c3ccccc3)=NN(c3ccccc3)CC12 (stereo not given) and report it.
> 100 µM (inactive)

Find the recorded GI50 belonging to C=CC(=O)N1C/C(=C\c2ccccc2)C(=O)/C(=C/c2ccccc2)C1 and report it.
0.259 µM (active)

Find the recorded GI50 belonging to Cc1cn(S(=O)(=O)c2ccccc2)c2c(OCc3ccccc3)cc(NS(C)(=O)=O)cc12 and report it.
17.8 µM (inactive)

Find the recorded GI50 belonging to NCCCc1nonc1C(=O)O and report it.
> 100 µM (inactive)

Find the recorded GI50 belonging to CC(=O)c1c(SCCN2CCOCC2)n(-c2ccccc2)c(=S)n(-c2ccccc2)c1=O and report it.
20.7 µM (inactive)

Find the recorded GI50 belonging to CN(CC(=O)O)Cc1c[nH]c2ccccc12 and report it.
> 100 µM (inactive)

Find the recorded GI50 belonging to Nc1ncnc2c1ncn2CC(O)C(=O)O (stereo not given) and report it.
> 100 µM (inactive)

Find the recorded GI50 belonging to Cn1cc(C2NC(=O)c3ccccc3N2)c2ccccc21 (stereo not given) and report it.
0.542 µM (active)

Find the recorded GI50 belonging to O=c1[nH]c(=O)n(CCOCP(=O)(O)O)nc1Br and report it.
> 100 µM (inactive)

Find the recorded GI50 belonging to Cc1ccc(C(=O)N/N=C(\N=N\c2ccccc2)c2ccc(N(C)C)cc2)cc1 and report it.
> 100 µM (inactive)

Find the recorded GI50 belonging to O=C1c2ccccc2N2OC3C4CCC(C4)C3C12c1ccccc1 (stereo not given) and report it.
> 100 µM (inactive)

Find the recorded GI50 belonging to Nc1cc(C(=O)NC2C3CC4CC(C3)CC2C4)nc(S)n1 (stereo not given) and report it.
> 100 µM (inactive)

Find the recorded GI50 belonging to CC1=NN(c2nc(N)nc(CBr)n2)C(C)(C)C1 and report it.
4.19 µM (inactive)

Find the recorded GI50 belonging to C[N+]1(CCC[N+]2(C)CC3C4C=CC(CC4)C3C2)CCOCC1 (stereo not given) and report it.
> 100 µM (inactive)

Find the recorded GI50 belonging to CCCCCCCCCCCCCC(=O)NO and report it.
16.3 µM (inactive)

Find the recorded GI50 belonging to CC1(C)Cc2c(C#N)c(N)c3c(c2CO1)C(=O)OC3=O and report it.
> 100 µM (inactive)

Find the recorded GI50 belonging to Cc1cc(-c2cccc3ccccc23)c(C#N)c(=S)n1C1OC(CO)C(O)C(O)C1O (stereo not given) and report it.
> 100 µM (inactive)

Find the recorded GI50 belonging to O=C1C=C2SC3C[C@@]24CC1[N+]1=c2c4c(c(O)c4c2=C(C=N4)CC1)N3 and report it.
2.62 µM (inactive)

Find the recorded GI50 belonging to COc1cc2c(cc1OC)C(C(c1ccccc1)c1ccccc1)N(C)CC2 (stereo not given) and report it.
> 100 µM (inactive)

Find the recorded GI50 belonging to CCOC(=O)c1cnc2sc3ccc4ccccc4c3n2c1=O and report it.
> 100 µM (inactive)

Find the recorded GI50 belonging to CN1C(=O)CC2CCC(=O)N2c2cccnc21 (stereo not given) and report it.
> 100 µM (inactive)

Find the recorded GI50 belonging to Cn1/c(=N\S(=O)(=O)c2ccccc2)[nH]c2ccccc21 and report it.
> 100 µM (inactive)

Find the recorded GI50 belonging to CCN/C(=N\Nc1ccc([N+](=O)[O-])cc1)P(=O)(OC(C)C)OC(C)C and report it.
> 100 µM (inactive)

Find the recorded GI50 belonging to COC1C(OC(=S)Nc2ccccc2)c2ccccc2N1C(C)=O (stereo not given) and report it.
34 µM (inactive)

Find the recorded GI50 belonging to Cc1c(N2C(=O)/C(=C/C=C/c3ccccc3)N=C2c2ccccc2)c(=O)n(-c2ccccc2)n1C and report it.
31.6 µM (inactive)

Find the recorded GI50 belonging to [O-][Cl+3]([O-])([O-])[O-].[O-][Cl+3]([O-])([O-])[O-].c1ccn2c(N3CCCC3)[n+]3c4ccccc4n4c(N5CCCC5)[n+]5ccccc5c4c3c2c1 and report it.
> 100 µM (inactive)

Find the recorded GI50 belonging to O=C1OC(c2ccccc2)=N/C1=C\c1c(O)cc(O)cc1O and report it.
> 100 µM (inactive)

Measured values drawn from ChEMBL document CHEMBL1201862 for this set.
